System: ATP;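 also: ATP exposure 15 min at 22 °C before imaging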
PROCEDURE TEXT: switch fluorescence ratio, 500 uM ATP over buffer (Cy3 cluster intensity, sum of 5 cycles each) (fold (ratio)); higher = stronger signal-on switching upon ATP binding; sequences stand for … in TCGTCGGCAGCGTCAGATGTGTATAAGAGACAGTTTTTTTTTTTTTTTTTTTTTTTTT…TC
CONDITION INFO: aptamer strand: ATP DNA aptamer (quencher-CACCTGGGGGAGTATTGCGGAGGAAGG + anchor), 100 nM annealed; ATP concentration: 500 uM
Let's look at some sequences and their measured switch fluorescence ratio.
Returns: the value as a bare number; no unit string appended.

> print(dat)
   macromolecule.sequence  recorded.result
1              ACCGGGATGG            0.994
2              CGGGGGGGTC                1
3              GGTCGGGGCG             1.02
4              GGGTATTTTA            0.988

Q: Answer with the recorded switch fluorescence ratio for the sequence listed here: TAACGCTGCC
Ans: 1.25

Q: Answer with the recorded switch fluorescence ratio for the sequence listed here: CAGTGTTCCG
Ans: 0.977

Q: Answer with the recorded switch fluorescence ratio for the sequence listed here: GTTAGTAAGG
Ans: 1.01

====

Tested on: ATP;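 also: ATP exposure 15 min at 22 °C before imaging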
PROCEDURE TEXT: switch fluorescence ratio, 500 uM ATP over buffer (Cy3 cluster intensity, sum of 5 cycles each) (fold (ratio)); higher = stronger signal-on switching upon ATP binding; sequences stand for … in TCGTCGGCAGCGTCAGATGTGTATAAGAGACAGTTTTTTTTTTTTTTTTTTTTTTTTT…TC
CONDITION INFO: aptamer strand: ATP DNA aptamer (quencher-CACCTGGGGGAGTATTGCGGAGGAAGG + anchor), 100 nM annealed; ATP concentration: 500 uM
Let's look at some sequences and their measured switch fluorescence ratio.
Returns: the value as a bare number; no unit string appended.

> print(dat)
   macromolecule.sequence              quantity.name  recorded.result
1              CTAGGAGGGA  switch fluorescence ratio             0.98

Q: Answer with the recorded switch fluorescence ratio for the sequence listed here: ATACGTGGGA
Ans: 1.01

Q: Answer with the recorded switch fluorescence ratio for the sequence listed here: TTAAAATGGT
Ans: 1

Q: Answer with the recorded switch fluorescence ratio for the sequence listed here: TAGCCCCCAG
Ans: 1.6

====

Test system: ATP;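 also: ATP exposure 15 min at 22 °C before imaging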
PROCEDURE TEXT: switch fluorescence ratio, 500 uM ATP over buffer (Cy3 cluster intensity, sum of 5 cycles each) (fold (ratio)); higher = stronger signal-on switching upon ATP binding; sequences stand for … in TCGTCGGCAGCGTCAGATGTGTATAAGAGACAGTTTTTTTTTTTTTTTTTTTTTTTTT…TC
CONDITION INFO: aptamer strand: ATP DNA aptamer (quencher-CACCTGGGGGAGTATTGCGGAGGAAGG + anchor), 100 nM annealed; ATP concentration: 500 uM
QUANTITY NAME: switch fluorescence ratio
Returns: the value as a bare number; no unit string appended.

Please review the following examples before continuing.
> print(dat)
   macromolecule.sequence  test.system              quantity.name  recorded.result
1              ACATGTAGAG          ATP  switch fluorescence ratio                1
2              TTCTGTTAAC          ATP  switch fluorescence ratio             1.01

Q: Answer with the recorded switch fluorescence ratio for the sequence listed here: GGGGACTGGG
Ans: 1

Q: Answer with the recorded switch fluorescence ratio for the sequence listed here: AATTGGTGGG
Ans: 0.992

Q: Answer with the recorded switch fluorescence ratio for the sequence listed here: AGACGGGTGG
Ans: 0.976

====

System: ATP;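 also: ATP exposure 15 min at 22 °C before imaging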
PROCEDURE TEXT: switch fluorescence ratio, 500 uM ATP over buffer (Cy3 cluster intensity, sum of 5 cycles each) (fold (ratio)); higher = stronger signal-on switching upon ATP binding; sequences stand for … in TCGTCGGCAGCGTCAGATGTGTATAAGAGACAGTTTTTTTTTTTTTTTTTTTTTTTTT…TC
CONDITION INFO: aptamer strand: ATP DNA aptamer (quencher-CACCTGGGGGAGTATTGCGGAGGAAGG + anchor), 100 nM annealed; ATP concentration: 500 uM
QUANTITY NAME: switch fluorescence ratio
Returns: the value as a bare number; no unit string appended.

> print(dat)
   macromolecule.sequence  recorded.result
1              AGAAAAGGGA            0.995
2              TTACGACTGT                1
3               CGTACGTTG                1
4              AAATTGAGAG                1
5              GAGGGTTCGG            0.972
6              ACGAAAGGTT             1.03
7              TGTTTGGGAA                1
8              CATCAATAAT             1.04

Q: Answer with the recorded switch fluorescence ratio for the sequence listed here: GCCTTTAGCT
Ans: 0.943

Q: Answer with the recorded switch fluorescence ratio for the sequence listed here: TCAGGGGGGC
Ans: 1.28

Q: Answer with the recorded switch fluorescence ratio for the sequence listed here: CCTAGTTGAA
Ans: 1.03

Q: Answer with the recorded switch fluorescence ratio for the sequence listed here: CAGCAGCTGG
Ans: 1.05

Q: Answer with the recorded switch fluorescence ratio for the sequence listed here: GGATTTGTGA
Ans: 1.02

Q: Answer with the recorded switch fluorescence ratio for the sequence listed here: ACGGGGGGCG
Ans: 0.984

Q: Answer with the recorded switch fluorescence ratio for the sequence listed here: TTCGGCCGGT
Ans: 0.998

Q: Answer with the recorded switch fluorescence ratio for the sequence listed here: AAGGTGGGCC
Ans: 0.985

Q: Answer with the recorded switch fluorescence ratio for the sequence listed here: GTGTGGGCAG
Ans: 0.973

Q: Answer with the recorded switch fluorescence ratio for the sequence listed here: TTGGGTGTCT
Ans: 0.988

Q: Answer with the recorded switch fluorescence ratio for the sequence listed here: AATAAGATTG
Ans: 0.987

Q: Answer with the recorded switch fluorescence ratio for the sequence listed here: GTTTAAATTA
Ans: 1.02

Q: Answer with the recorded switch fluorescence ratio for the sequence listed here: TTCGTTGTAA
Ans: 0.987

Q: Answer with the recorded switch fluorescence ratio for the sequence listed here: ATTTCGTGGG
Ans: 0.978

Q: Answer with the recorded switch fluorescence ratio for the sequence listed here: AAAAGGGCGC
Ans: 1.03

Q: Answer with the recorded switch fluorescence ratio for the sequence listed here: GTAGTTACGG
Ans: 1.05

Q: Answer with the recorded switch fluorescence ratio for the sequence listed here: AATATCATAC
Ans: 1.05

Q: Answer with the recorded switch fluorescence ratio for the sequence listed here: TACGTTGAAA
Ans: 1.17

Q: Answer with the recorded switch fluorescence ratio for the sequence listed here: TCGGGGTCTT
Ans: 0.994

Q: Answer with the recorded switch fluorescence ratio for the sequence listed here: ATTTTAATAG
Ans: 0.991

====

Let's look at some sequences and their measured switch fluorescence ratio.
Test system: ATP;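 also: ATP exposure 15 min at 22 °C before imaging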
PROCEDURE TEXT: switch fluorescence ratio, 500 uM ATP over buffer (Cy3 cluster intensity, sum of 5 cycles each) (fold (ratio)); higher = stronger signal-on switching upon ATP binding; sequences stand for … in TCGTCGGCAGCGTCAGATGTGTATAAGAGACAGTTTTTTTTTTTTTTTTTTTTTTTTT…TC
CONDITION INFO: aptamer strand: ATP DNA aptamer (quencher-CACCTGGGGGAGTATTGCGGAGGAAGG + anchor), 100 nM annealed; ATP concentration: 500 uM
Returns: the value as a bare number; no unit string appended.

Please review the following examples before continuing.
> print(dat)
    macromolecule.sequence  recorded.result
 1              TTACTATTTG            0.961
 2              GTTATATGAC            0.999
 3              AACTACAACG             1.05
 4              GGGATCTATG             1.02
 5              GGGTGGCACA                1
 6              GTGGGGGTGT             1.05
 7              CATAAAGGAT             0.97
 8              TGGGGGGAAG            0.994
 9              GCTACGTGTT             1.05
10              GCTGGCAGCC             1.01

Q: Answer with the recorded switch fluorescence ratio for the sequence listed here: ACGGCCTGGG
Ans: 1.03

Q: Answer with the recorded switch fluorescence ratio for the sequence listed here: CATTCTGCGG
Ans: 1.05
